- test summary: Quantitative High-Throughput drug screen in 47 multiple myeloma cell lines against the NCATS MIPE library collection: INA6_PLB cell viability assay (AID 1918965; further: nearly all actives have a fitted effect of over 55% in size)
- experimental context: INA6 myeloma viability, CellTiter-Glo ATP luminescence, 48 h; series mostly up to 45.8 µM
Inconclusive results are not listed. Activity calls are given as the source filed them. The call rests on the fitted dose curve; in most records, active means well fitted cell-killing curve with a large enough effect; inconclusive means small, poorly fitted or top-dose-only effect, or effect the other way; inactive means no such curve, though single readings can be large or run the other way.
Return exactly one item of active, inactive

In this assay, the call recorded for O=C1CSC(=O)N1C(CCc1ccncc1)COc1ccc(-c2cccc([N+](=O)[O-])c2)cc1 (stereo unspecified) was what?
active

Field: outcome | Entry: CC(C)NC[C@@H](C(=O)N1CCN(c2ncnc3c2[C@H](C)C[C@H]3O)CC1)c1ccc(Cl)cc1
active

# lookup: test call for COc1cc([C@@H]2c3cc4c(cc3[C@@H](O[C@@H]3O[C@@H]5CO[C@@H](c6cccs6)O[C@@H]5[C@H](O)[C@@H]3O)[C@H]3COC(=O)[C@H]23)OCO4)cc(OC)c1O
active

What is the recorded call for this compound in the test? CCOc1cc2ncc(C#N)c(Nc3ccc(OCc4ccccn4)c(Cl)c3)c2cc1NC(=O)C=CCN(C)C
active

Where do these numbers come from? They come from PubChem BioAssay (NCATS).
